# measured_target: sigma receptor
# procedure_details: Radioreceptor assay: sigma receptor, displacement of [^3 H]-3-(+)-PPP
# condition_context: units ± SEM; rat brain crude membranes; 2 nM [^3 H]-(+)-3-PPP; 1 hr incubation at room temperature; pH 7.4; read-out: Ki apparent
# Method: To determine the effects of the compounds in a sigma receptor assay, crude membrane preparations were prepared as follows. Brains from male Sprague-Dawley rats were homogenized in 10 volumes (wt/vol) of 0.32M sucrose, using a Polytron grinder. […] Radioactivity on the filters was determined using liquid scintillation spectrometry and inhibition curves were calculated according to the method of Cheng and Prusoff [Biochem. Pharmacol., 22, 3099-3108 (1973)].
pKi: −log10 of the molar value.
readout_kind: pKi

compound	observed_result
c1ccc2c(c1)C1CCC2C(N2CCCCC2)CC1 (centres unmarked) [Compound No. 1]	8.22
c1ccc2c(c1)C1CCC2C(N2CCCCC2)CC1 (centres unmarked) [Compound No. 3]	6.82
OCCN1CCN(C2CCC3CCC2c2ccccc23)CC1 (centres unmarked)	6.52
c1ccc2c(c1)C1CCC2C(N2CCCCC2)CC1 (centres unmarked) [Compound No. 2]	8.00
CN1CCN(C2CCC3CCC2c2ccccc23)CC1 (centres unmarked)	4.80
